System: NOMO1
Experiment: cell viability relative to DMSO control; higher = less cytotoxic
Details: RPMI 5 mM glucose + 10% FBS; 48 h; 0.00702 µM
Parameter: cell viability (%)
Please reply with the bare figure in % and do not write the unit itself.

Compound: CC(C)c1ccc2c(c1)c(SC(C)(C)C)c(CC(C)(C)C(=O)[O-])n2Cc1ccc(Cl)cc1
Parameter: cell viability
Observed result: 92.8
//
Compound: COCC1(CO)C(=O)C2CCN1CC2 (centres undefined)
Parameter: cell viability
Observed result: 102
//
Compound: COc1ccc([C@@H]2CC(=O)c3c(O)cc(O[C@@H]4O[C@H](CO[C@@H]5O[C@@H](C)[C@H](O)[C@@H](O)[C@H]5O)[C@@H](O)[C@H](O)[C@H]4O)cc3O2)cc1O
Parameter: cell viability
Observed result: 107
//
Compound: O=c1[nH]c2ccccc2n1CCCN1CCC(n2c(=O)[nH]c3cc(Cl)ccc32)CC1
Parameter: cell viability
Observed result: 123
//
Compound: COC(=O)C[C@](O)(CCCC(C)(C)O)C(=O)O[C@@H]1C(OC)=CC23CCCN2CCc2cc4c(cc2[C@H]13)OCO4 (some centres undefined)
Parameter: cell viability
Observed result: 96.3

What does the data say about its cell viability? Entry: CC1=C(C)C(=O)C(C(CCCCCC(=O)O)c2ccccc2)=C(C)C1=O (centres undefined)
70.7
